# System: MCF7/ADR
# procedure.text: Anti-proliferative activity test in cancer cells exhibiting multidrug resistance (MTT)
# Format: cell-based
# measurement.context: ratio IC50 MCF7/ADR to IC50 MCF7
endpoint: Resistance Factor
Give bare numbers.

Solved entries:
smiles=COc1cccc2c1C(=O)c1c(O)c3c(c(O)c1C2=O)C[C@@](O)(C(=O)CO)C[C@@H]3O[C@H]1C[C@H](N)[C@H](O)[C@H](C)O1 target_or_system=MCF7/ADR quantitative_readout=169.57
smiles=CC(=O)O[C@H]1C(=O)[C@@]2(C)[C@H]([C@H](OC(=O)c3ccccc3)[C@]3(O)C[C@H](OC(=O)[C@H](O)[C@@H](NC(=O)c4ccccc4)c4ccccc4)C(C)=C1C3(C)C)[C@]1(OC(C)=O)CO[C@@H]1C[C@@H]2O target_or_system=MCF7/ADR quantitative_readout=438.38

Hi team, please reply with Resistance Factor for each item in this list.
1. CC[C@]1(O)C[C@@H]2CN(CCc3c([nH]c4ccccc34)[C@@](C(=O)OC)(c3cc4c(cc3OC)N(C)[C@H]3[C@@](O)(C(=O)OC)[C@H](OC(C)=O)[C@]5(CC)C=CCN6CC[C@]43[C@@H]65)C2)C1
2. COc1cc2c(c(OC)c1OC)-c1ccc(OC)c(=O)cc1[C@@H](NC(C)=O)CC2

1. 18.17
2. 34.15

The molecule listed as CCOCCn1c(Cl)c(/C=N/NC(=O)c2cc3cc(C)ccc3o2)c2ccccc21 shows Resistance Factor equal to 0.40
